Where these numbers come from: PubChem BioAssay AID214

# T/C values compiled below
# Tested on: B6C3F1 mice, colon carcinoma 38 s.c., T/C
# TEST NAME: NCI In Vivo Anticancer Drug Screen. Data for tumor model Colon Carcinoma 38 (subcutaneous) in B6C3F1 mice
# CONDITION LABEL: endpoint: median tumor weight (est.); dose: 800.0 mg/kg/injection; schedule: Q07DX002 (ip); vehicle: Klucel (hydroxypropylcellulose) (HPC); higher = larger tumour
Records with an inconclusive call do not appear.

COMPOUND | T/C
COC1C(CO)OC(n2cnc3c(=S)nc(N)[nH]c32)C1O (centres undefined) | 13 % of control
O=C1CC2(C(=O)N1CN1CCOCC1)c1ccccc1-c1ccccc12 | 56 % of control
CC(CN1CC(=O)NC(=O)C1)N1CC(=O)NC(=O)C1 (centres undefined) | 1 % of control
CN(C)c1ccc2c(SCC(=O)OCC(=O)[C@@]3(O)CC[C@H]4[C@@H]5CCC6=CC(=O)C=C[C@]6(C)[C@H]5C(=O)C[C@@]43C)c3ccc(N(C)C)cc3nc2c1 | 16 % of control

###

# T/C values compiled below
# Test system: B6C3F1 mice, colon carcinoma 38 s.c., T/C
# TEST NAME: NCI In Vivo Anticancer Drug Screen. Data for tumor model Colon Carcinoma 38 (subcutaneous) in B6C3F1 mice
# CONDITION LABEL: endpoint: median tumor weight (est.); dose: 50.0 mg/kg/injection; schedule: Q07DX002 (ip); vehicle: saline with Tween-80; higher = larger tumour
Records with an inconclusive call do not appear.
PROPERTY: T/C

COMPOUND | MEASURED
O=C1SC(c2ccccc2)=S=C1c1ccccc1 | 152 % of control
COc1ccc2c(ccc3oc([N+](=O)[O-])cc32)c1 | 101 % of control
COc1ccc(S(=O)(=O)N=N/C=C2\C=CC=CN2O)cc1OC | 175 % of control
O=C(CCCN1CCC(C(O)c2ccc(F)cc2)CC1)c1ccc(F)cc1 (stereo unspecified) | 92 % of control
Nc1ccc2c(c1)CN1C(=O)c3ccccc3C1=N2 | 56 % of control
Nc1ccc2ccc(NS(=O)(=O)N3CCCCC3)cc2c1 | 108 % of control

###

# Tested on: B6C3F1 mice, colon carcinoma 38 s.c., T/C
# TEST NAME: NCI In Vivo Anticancer Drug Screen. Data for tumor model Colon Carcinoma 38 (subcutaneous) in B6C3F1 mice
# CONDITION LABEL: endpoint: median tumor weight (est.); dose: 400.0 mg/kg/injection; schedule: Q07DX002 (ip); vehicle: saline with Tween-80; higher = larger tumour
Results filed as inconclusive are left out.
# T/C values compiled below

COMPOUND | TARGET UNDER TEST | T/C
CCCCCC1c2cc(O)ccc2OC1N1CCOCC1 (stereo not drawn) | B6C3F1 mice, colon carcinoma 38 s.c., T/C | 81 % of control
O=C1SC(c2ccccc2)=S=C1c1ccccc1 | B6C3F1 mice, colon carcinoma 38 s.c., T/C | 120 % of control
COc1cc2c[n+](C)c3c(c2cc1OC)Cc1cc2c(cc1-3)OCO2 | B6C3F1 mice, colon carcinoma 38 s.c., T/C | 85 % of control

###

# Tested on: B6C3F1 mice, colon carcinoma 38 s.c., T/C
# TEST NAME: NCI In Vivo Anticancer Drug Screen. Data for tumor model Colon Carcinoma 38 (subcutaneous) in B6C3F1 mice
# CONDITION LABEL: endpoint: median tumor weight (est.); dose: 200.0 mg/kg/injection; schedule: Q07DX002 (ip); vehicle: saline with Tween-80; higher = larger tumour
Records with an inconclusive call do not appear.

MOLECULE | T/C
Nc1nc(-c2ccccc2)c(Br)c(=O)[nH]1 | 115 % of control
CC(=O)N(C)O | 116 % of control
CCN(CC)c1ccc2[nH]c3c(C(N)=O)cc(=O)c(=O)c=3oc2c1 | 99 % of control
Nc1nc(N)c2cc(S(=O)(=O)c3ccccc3)ccc2n1 | 44 % of control
COc1ccc2c(ccc3oc([N+](=O)[O-])cc32)c1 | 90 % of control
O=C1SC(c2ccccc2)=S=C1c1ccccc1 | 104 % of control
S=C(NCNC(=S)c1ccncc1)c1ccncc1 | 104 % of control
CC1c2ccccc2CC(CCN(C)C)c2ccccc21 (configuration not stated) | 69 % of control
CCCCCCCCCCCCCCCCCCCCCC(=O)Nc1ccn(C2OC(CO)C(O)C2O)c(=O)n1 (configuration not stated) | 35 % of control
O=[N+]([O-])c1ccc(N2CCOCC2)c2c1no[n+]2[O-] | 103 % of control
Oc1cc2ccccc2c(-c2c(O)c(O)cc3ccccc23)c1O | 70 % of control
O=C(CCCCCCC(=O)ON1C(=O)CCC1=O)ON1C(=O)CCC1=O | 108 % of control
COc1cc2c[n+](C)c3c(c2cc1OC)Cc1cc2c(cc1-3)OCO2 | 97 % of control
Nc1ccc2c(c1)CN1C(=O)c3ccccc3C1=N2 | 35 % of control
Nc1ccc2ccc(NS(=O)(=O)N3CCCCC3)cc2c1 | 39 % of control
O=C(C/C(=N\C(=S)Nc1cc(C(F)(F)F)ccc1Cl)NO)N1CCCC1 | 70 % of control
COc1ccc(S(=O)(=O)N=N/C=C2\C=CC=CN2O)cc1OC | 166 % of control
NS(=O)(=O)OCCCCCCCOS(N)(=O)=O | 104 % of control
CN(C)C1C(=O)C(C(=O)NP(=O)(NCCCO)N(CCCl)CCCl)=C(O)C2(O)C(=O)C3=C(O)c4c(O)cccc4C(C)(O)C3CC12 (configuration not stated) | 42 % of control
CC1(C)OCC2OC=CC(=O)C2O1 (configuration not stated) | 222 % of control
O=C1NC(=O)/C(=C/C=C/c2ccccc2)S1 | 67 % of control
ClCc1ccc2ccccc2n1 | 89 % of control
